- Tested on: H358 cells
- Experiment description: Cell viability assay (CELLTITER-GLO), H358 cells
- Assay type: cell-based
- Assay setup: Table 4; 3 days
Test readout: Inhibition of H358 cells, IC50 (class)

Some solved entries appear below for comparison.
C=C(F)C(=O)N1CCN(c2ncnc3c(F)c(-c4c(F)cccc4OCCCCCCCN4CCC(c5cc(F)cc6c5CN(C5CCC(=O)NC5=O)C6=O)CC4)c(Cl)cc23)CC1 (centres unmarked): B′
CC/C=C(\Cl)C(=O)N1CCN(c2ncnc3c(F)c(-c4c(F)cccc4OCCCCCCCN4CCC(c5cc(F)cc6c5CN(C5CCC(=O)NC5=O)C6=O)CC4)c(Cl)cc23)CC1 (centres unmarked): B′
CCC(=O)N1CCN(c2ncnc3c(F)c(-c4c(F)cccc4OCCCCCCCN4CCCC(c5cc(F)cc6c5CN(C5CCC(=O)NC5=O)C6=O)C4)c(Cl)cc23)CC1 (centres unmarked): B′
CCC(=O)N1CCN(c2ncnc3c(F)c(-c4c(F)cccc4OCCCCCCC(=O)N[C@H](C(=O)N4C[C@H](O)C[C@H]4C(=O)NCc4ccc(-c5scnc5C)cc4)C(C)(C)C)c(Cl)cc23)CC1: B′
CCC(=O)N1CCN(c2ncnc3c(F)c(-c4c(F)cccc4OCCOCCOCCOCCNc4cccc5c4C(=O)N(C4CCC(=O)NC4=O)C5=O)c(Cl)cc23)CC1 (centres unmarked): D′
O=C1CCC(N2Cc3c(cc(F)cc3C3CCN(CCCCCCCOc4cccc(F)c4-c4c(Cl)cc5c(N6CCN(C(=O)CC7CC7)CC6)ncnc5c4F)CC3)C2=O)C(=O)N1 (centres unmarked): B′
C=C(Cl)C(=O)N1CCN(c2nc(OCCN(C)C)nc3c(F)c(-c4c(F)cccc4OCCCCCCCN4CCC(c5cc(F)cc6c5CN(C5CCC(=O)NC5=O)C6=O)CC4)c(Cl)cc23)CC1 (centres unmarked): B′
CCC(=O)N1CCN(c2ncnc3c(Cl)c(-c4c(F)cccc4OCCCCCCCCN4CCC(c5cc(F)cc6c5CN(C5CCC(=O)NC5=O)C6=O)CC4)c(F)cc23)CC1 (centres unmarked) [Compound 49]: B′

Now consider a different compound.
The value of Inhibition of H358 cells, IC50 (class) measured for the compound C=C(Cl)C(=O)N1CCN(c2nc(OC[C@@H]3CCCN3C)nc3c(F)c(-c4c(F)cccc4OCCCCCCCN4CCC(c5cc6c(cc5F)C(=O)N(C5CCC(=O)NC5=O)C6)CC4)c(Cl)cc23)C[C@H]1CC#N (some centres unmarked) turned out to be B′

* * *

- Tested on: H358 cells
- Experiment description: Cell viability assay (CELLTITER-GLO), H358 cells
- Type: cell-based
- Assay setup: Table 4; 3 days
Test readout: Inhibition of H358 cells, IC50 (class)

As a guide, the following entries are already answered.
C=CC(=O)N1CCN(c2ncnc3c(F)c(-c4c(F)cccc4OCCOCCOCCOCCNc4cccc5c4C(=O)N(C4CCC(=O)NC4=O)C5=O)c(Cl)cc23)CC1 (centres unmarked): B′
C=C(Cl)C(=O)N1CCN(c2ncnc3c(F)c(-c4c(F)cccc4OCCCCCCCN4CCCC(c5cc6c(cc5F)C(=O)N(C5CCC(=O)NC5=O)C6)C4)c(Cl)cc23)CC1 (centres unmarked): B′
C=C(Cl)C(=O)N1CCN(c2ncnc3c(F)c(-c4c(F)cccc4OCCCCCCCN4CCC(c5cc6c(cc5F)C(=O)N(C5CCC(=O)NC5=O)C6)CC4)c(Cl)cc23)C[C@H]1CC#N (some centres unmarked): A′
C=CC(=O)N1CCN(c2nc(=O)n(-c3c(C)ccnc3C(C)C)c3nc(-c4c(F)cccc4OCCCCCCCN4CCC(c5cc(F)cc6c5CN(C5CCC(=O)NC5=O)C6=O)CC4)c(F)cc23)[C@@H](C)C1 (some centres unmarked): A′

Moving on to another compound below.
The compound identified as O=C1CCC(N2Cc3c(cc(F)cc3C3CCN(CCCCCCCOc4cccc(F)c4-c4c(Cl)cc5c(N6CCN(C(=O)C7CCOCC7)CC6)ncnc5c4F)CC3)C2=O)C(=O)N1 (centres unmarked) registered its Inhibition of H358 cells, IC50 (class) at C′
